# MEASUREMENT_TARGET: T1, human TREM2 (human, UniProt Q9NZC2 19-174, limits assumed)
# T1 construct: also called triggering receptor expressed on myeloid cells 2
# T1 sequence: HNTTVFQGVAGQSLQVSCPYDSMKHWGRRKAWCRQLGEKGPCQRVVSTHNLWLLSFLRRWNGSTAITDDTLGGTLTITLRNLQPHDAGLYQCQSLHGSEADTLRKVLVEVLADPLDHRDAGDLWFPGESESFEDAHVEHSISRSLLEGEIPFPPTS
# PROTOCOL: 1st screen (110 nM or 10 nM)
Each entry below carries its recorded Binding Signal (fold over 6E7 Parental antibody).
Write the number in fold without appending the unit.

{"columns": ["BINDER", "MEASURE_UNIT", "MEASURED_NUMBER"],
 "data": [
  ["V30 (antibody, V domains shown) VH: EVQLVQSGAEVKKPGESLKISCKGSGSSFTSYWIAWVRQMPGKGLEWMGIIYPGDSDTRYSPSFQGQVTISADKSISTAYLQWSSLKASDTAMYFCARQRTFYYDSSDYFDYWGQGTLVTVSS VL: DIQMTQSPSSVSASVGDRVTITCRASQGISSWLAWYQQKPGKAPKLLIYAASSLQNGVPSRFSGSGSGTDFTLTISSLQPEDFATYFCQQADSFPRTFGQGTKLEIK", "fold", 0.79],
  ["V9 (antibody, V domains shown) VH: EVQLVQSGAEVKKPGESLKISCKGSGYSFTSYWIAWVRQMPGKGLEWMGIIYPGDSDTRYSPSFQGQVTISADKSISTAYLQWSSLKASDTAMYFCARQRGFYYDSSDYFDYWGQGTLVTVSS VL: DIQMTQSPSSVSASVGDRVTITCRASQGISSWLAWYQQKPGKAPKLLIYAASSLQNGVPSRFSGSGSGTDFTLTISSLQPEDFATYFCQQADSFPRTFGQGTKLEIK", "fold", 0.67],
  ["V11 (antibody, V domains shown) VH: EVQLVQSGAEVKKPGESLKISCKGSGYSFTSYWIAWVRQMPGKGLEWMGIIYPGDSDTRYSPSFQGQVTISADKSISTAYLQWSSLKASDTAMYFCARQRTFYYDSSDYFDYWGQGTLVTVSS VL: DIQMTQSPSSVSASVGDRVTITCRASQGISSWLAWYQQKPGKAPKLLIYAASSLQNGVPSRFSGSGSGTDFTLTISSLQPEDFATYFCQQAASFPRTFGQGTKLEIK", "fold", 0.79],
  ["V31 (antibody, V domains shown) VH: EVQLVQSGAEVKKPGESLKISCKGSGYSFTSYWIAWVRQMPGKGLEWMGIIYPGDSETRYSPSFQGQVTISADKSISTAYLQWSSLKASDTAMYFCARQRTFYYDSSDYFDYWGQGTLVTVSS VL: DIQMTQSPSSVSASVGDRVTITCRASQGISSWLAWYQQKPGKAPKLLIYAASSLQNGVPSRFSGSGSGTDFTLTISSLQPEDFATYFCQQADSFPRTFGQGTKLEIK", "fold", 0.61],
  ["V39 (antibody, V domains shown) VH: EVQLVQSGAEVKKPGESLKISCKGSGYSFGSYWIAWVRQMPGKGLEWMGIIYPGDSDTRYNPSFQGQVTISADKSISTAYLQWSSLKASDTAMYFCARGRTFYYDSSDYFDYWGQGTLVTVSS VL: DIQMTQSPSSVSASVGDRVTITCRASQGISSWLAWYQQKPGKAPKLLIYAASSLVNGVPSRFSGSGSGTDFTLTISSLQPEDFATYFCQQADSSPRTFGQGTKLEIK", "fold", 6.15]
]}

Could you share which Binding Signal (fold over 6E7 Parental antibody) value was measured for V53 (antibody, V domains shown) VH: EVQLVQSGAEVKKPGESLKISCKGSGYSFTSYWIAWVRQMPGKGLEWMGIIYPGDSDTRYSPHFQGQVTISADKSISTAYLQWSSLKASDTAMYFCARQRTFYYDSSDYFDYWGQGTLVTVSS VL: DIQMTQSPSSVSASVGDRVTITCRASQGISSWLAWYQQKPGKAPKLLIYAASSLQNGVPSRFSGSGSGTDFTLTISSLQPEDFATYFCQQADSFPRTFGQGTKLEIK ? 1.25

Also V74 (antibody, V domains shown) VH: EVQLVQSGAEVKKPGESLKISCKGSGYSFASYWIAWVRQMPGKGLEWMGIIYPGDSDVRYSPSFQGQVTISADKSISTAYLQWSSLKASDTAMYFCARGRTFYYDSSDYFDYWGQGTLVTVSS VL: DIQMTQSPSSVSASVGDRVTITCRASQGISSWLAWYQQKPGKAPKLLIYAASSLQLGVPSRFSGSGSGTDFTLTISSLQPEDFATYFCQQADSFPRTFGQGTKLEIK ? 3.94

Same again, this time with V20 (antibody, V domains shown) VH: EVQLVQSGAEVKKPGESLKISCKGSGYSFTSYWIAWVRQMPGKGLEWMGRIYPGDSDTRYSPSFQGQVTISADKSISTAYLQWSSLKASDTAMYFCARQRTFYYDSSDYFDYWGQGTLVTVSS VL: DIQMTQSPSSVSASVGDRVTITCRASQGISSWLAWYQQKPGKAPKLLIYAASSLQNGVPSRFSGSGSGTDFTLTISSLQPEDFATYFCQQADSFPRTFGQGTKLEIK 0.18

Same lookup for V61 (antibody, V domains shown) VH: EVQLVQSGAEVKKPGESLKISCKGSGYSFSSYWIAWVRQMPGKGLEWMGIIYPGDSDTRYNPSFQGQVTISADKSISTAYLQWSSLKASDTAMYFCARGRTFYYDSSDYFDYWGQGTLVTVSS VL: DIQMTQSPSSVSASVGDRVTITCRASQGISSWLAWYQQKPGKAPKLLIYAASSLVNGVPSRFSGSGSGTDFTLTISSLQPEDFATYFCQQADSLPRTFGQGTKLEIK , please. 5.08

Same again, this time with V24 (antibody, V domains shown) VH: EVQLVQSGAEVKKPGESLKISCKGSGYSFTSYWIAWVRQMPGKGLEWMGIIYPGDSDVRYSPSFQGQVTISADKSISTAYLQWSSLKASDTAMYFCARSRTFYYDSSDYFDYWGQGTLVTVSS VL: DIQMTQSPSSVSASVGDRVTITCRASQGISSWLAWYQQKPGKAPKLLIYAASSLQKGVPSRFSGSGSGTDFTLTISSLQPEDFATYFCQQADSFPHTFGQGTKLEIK 2.64
